# Test system: UO-31 renal
# experimentalDetails: NCI-60 one-dose screen, 48 h (100 = growth as untreated, 0 = no growth, -100 = all killed)
# conditionLabel: 10 µM unless noted
Compounds without any hit were thinned out: in the full panel of roughly 83,000, 20% have a hit.
Catalogue of compounds with associated growth
Reply with just the number (in %).

Worked set:
C=C(C)[C@@H]1CC[C@]2(C)[C@H](CC=C3[C@@H]4CC(C)(C)CC[C@]4(C(=O)OC)CC[C@]32C)[C@@]1(C)CC/C(N)=N/O : 40.3
Cc1ccc(/C=C(\C#N)c2cc3ccccc3n2C)cc1 : 56.8
CN1CCN(c2ccc3nc(-c4[nH]ncc4Nc4ncnc5[nH]ccc45)[nH]c3c2)CC1 : -9.13

Proceeding to the next compound to report its growth.
Query: Which growth is reported for this compound? CC1(C)C(=O)/C(=C\c2ccccn2)C[C@]2(C)[C@H]3CC[C@@H]4[C@@H](C(=O)/C=C/c5ccccn5)CC[C@@]4(C)[C@]3(C)CC[C@@H]12
Reply: -99.6
